Assay: Preparation of ink and evaluation of solubility in low polar solvents (saturated solution, absorption maximum, εC)
Type: physicochemical
Settings: n-Decane solution
measure: Absorption maximum wavelength (nm)
One number for each entry, in nm.

1. CCCCC(CC)CNc1ccc(NCC(CC)CCCC)c2c1C(=O)c1ccccc1C2=O (stereo not shown); 650
2. CCCCC(CC)CNc1ccc(NCC(CC)CCCC)c2c1C(=O)c1ccc(C(=O)OCC)cc1C2=O (stereo not shown); 668
3. CCCCC(CC)CNc1ccc(NCC(CC)CCCC)c2c1C(=O)c1ccc(C(=O)OCCC)cc1C2=O (stereo not shown); 668
4. CCCCC(CC)CNc1ccc(NCC(CC)CCCC)c2c1C(=O)c1ccc(C(=O)OCC(C)C)cc1C2=O (stereo not shown); 668

Proceed to the following item.
Give the measured Absorption maximum wavelength of CC(C)CNc1ccc(Nc2ccccc2)c2c1C(=O)c1ccccc1C2=O [Comparative Compound 2, reference compound] .
614

----------
Would you mind telling me the reported Absorption maximum wavelength of each entry?
Test: Preparation of ink and evaluation of solubility in low polar solvents (saturated solution, absorption maximum, εC)
Assay type: physicochemical
Conditions: ISOPAR M solution
Give bare numbers, in nm.

1. CCCCC(CC)CNc1ccc(NCC(CC)CCCC)c2c1C(=O)c1ccc(C(=O)OCC(C)C)cc1C2=O (centres unmarked) [Illustrative Compound 3]; 668
2. CCCCC(CC)CNc1ccc(NCC(CC)CCCC)c2c1C(=O)c1ccc(C(=O)OCCC)cc1C2=O (centres unmarked) [Illustrative Compound 4]; 667
3. CCCCC(CC)CNc1ccc(NCC(CC)CCCC)c2c1C(=O)c1ccccc1C2=O (centres unmarked) [Illustrative Compound 1]; 650

Proceed to the following item.
Give the measured Absorption maximum wavelength of CNc1ccc(Nc2ccc(C)cc2)c2c1C(=O)c1ccccc1C2=O [Comparative Compound 1, C.I. Solvent Blue 11, reference compound] .
594

----------
Test: Preparation of ink and evaluation of solubility in low polar solvents (saturated solution, absorption maximum, εC)
Format: physicochemical
Conditions: ISOPAR G solution
measure: εC (cm⁻¹)
Numbers only, in cm⁻¹.

1. CNc1ccc(Nc2ccc(C)cc2)c2c1C(=O)c1ccccc1C2=O [Comparative Compound 1, C.I. Solvent Blue 11, reference compound]; 7

Hello, I would appreciate it if you could give εC for each entry below.
1. CCCCC(CC)CNc1ccc(NCC(CC)CCCC)c2c1C(=O)c1ccc(C(=O)OCC(C)C)cc1C2=O (centres unmarked)
2. CCCCC(CC)CNc1ccc(NCC(CC)CCCC)c2c1C(=O)c1ccccc1C2=O (centres unmarked)
3. CCCCC(CC)CNc1ccc(NCC(CC)CCCC)c2c1C(=O)c1ccc(C(=O)OCCC)cc1C2=O (centres unmarked)

[2700, 1900, 1400]

----------
Test: Preparation of ink and evaluation of solubility in low polar solvents (saturated solution, absorption maximum, εC)
Assay type: physicochemical
Conditions: ISOPAR G, saturated solution, room temperature
measure: Solubility (% by mass)
Give bare numbers, in % by mass.

Example molecules with recorded Solubility:
1) CCCCC(CC)CNc1ccc(NCC(CC)CCCC)c2c1C(=O)c1ccc(C(=O)OCC(C)C)cc1C2=O (centres unmarked); 10.8
2) CCCCC(CC)CNc1ccc(NCC(CC)CCCC)c2c1C(=O)c1ccccc1C2=O (centres unmarked); 7.3
3) CNc1ccc(Nc2ccc(C)cc2)c2c1C(=O)c1ccccc1C2=O [Comparative Compound 1, C.I. Solvent Blue 11, reference compound]; 0.02

Proceed to the following item.
Give the measured Solubility of CCCCC(CC)CNc1ccc(NCC(CC)CCCC)c2c1C(=O)c1ccc(C(=O)OCCC)cc1C2=O (centres unmarked) .
5.5

Value source: patent US20130241815A1
